Molecular target: CTX-M-15 (Escherichia coli, UniProt Q9EXV5)
Construct: made in house; host or cells: E. coli (DH5 and BL21(DE3) named)
Sequence (Q9EXV5 29-291, species assumed): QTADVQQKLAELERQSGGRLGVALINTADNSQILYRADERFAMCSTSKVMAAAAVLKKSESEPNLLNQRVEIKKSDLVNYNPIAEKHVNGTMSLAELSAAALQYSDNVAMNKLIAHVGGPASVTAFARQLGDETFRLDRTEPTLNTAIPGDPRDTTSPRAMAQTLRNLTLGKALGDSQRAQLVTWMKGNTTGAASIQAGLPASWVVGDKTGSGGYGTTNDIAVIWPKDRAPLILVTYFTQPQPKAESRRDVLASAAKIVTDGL
Experiment: Steady-state kinetics of antibiotic hydrolysis with inhibitor
Format: biochemical
Details: meropenem, inhibitor concentration as per IC50
Protocol: The enzyme kinetics parameters (Km, and kcat) for all six proteins/enzymes in combination with different antibiotics (cefotaxime, imipenem, and meropenem), were calculated. […] The steady-state kinetics of all six proteins were determined using the antibiotics:imipenem (Δε295 = −11,500 M^−1 cm^−1), meropenem (Δε297 = −10,940 M^−1 cm^−1), and cefotaxime (Δε264 = −27,250 M^−1 cm^−1). […]
Readout type: Km or Ki (μΜ)
I only need the number, in μΜ, no unit after it.

Output Km or Ki of `O=C(O)c1ccccc1C(=O)N1CCN(c2nc(-c3ccccc3)ns2)CC1`
469.8

Output Km or Ki of NC(=O)[C@@H]1CC[C@@H]2CN1C(=O)N2OS(=O)(=O)O [Avibactam, reference compound]
745.5

Output Km or Ki of `O=C(CN1C(=O)c2ccccc2S1(=O)=O)c1ccc(O)c(O)c1`
228.4
